Some binders, each annotated with its measured koff.
Molecular target: T1, PACAP27 (Pituitary Adenylate Cyclase-Activating Polypeptide, 27 amino acids) (human, the C-terminal leucine is amidated)
T1 construct: also called human PACAP27
T1 peptide: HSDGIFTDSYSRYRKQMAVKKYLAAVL
Assay: SPR (ProteOn XPR36), antibody amine-coupled, peptide analyte, 1:1 Langmuir fit
Description: Binding affinities of monoclonal antibodies for human PACAP were estimated using SPR on the PROTEON™ XPR36 (Bio-Rad, Hercules, CA). Antibody was immobilized to the surface of general amine coupling (“GLC” or “GLM”) Chips (Bio-Rad, Hercules, CA). […]
Report as a plain number; the unit s⁻¹ is understood.

Task item: Reported koff for Ab1.H (antibody, V domains shown) VH: EVQLVESGGGLVQPGGSLRLSCAASGFTVSSAVMNWVRQAPGKGLEWIGSIVASGTTYYASSANGRFTISRDNSKNTLYLQMNSLRAEDTAVYYCARGGGEFFIWGQGTLVTVSS VL: DIQMTQSPSTLSASVGDRVTITCQSSESVYSNYLSWYQQKPGKAPKFLIYQASNLASGVPSRFSGSGSGTEFTLTISSLQPDDFATYYCAGGYSENIVGFGGGTKVEIKR : what is it?
Reply: 1e-05

Task item: Then this binder: Ab20 (antibody, human IgG1, kappa, N297A, V domains shown, Full-length anti-PACAP antibody; rabbit/human chimeric) VH: QSVEESGGRLVTPGTPLTLTCTVSGIDLSSYYMSWVRQAPGKGLEWIGFIDTDGSAYYATWAKGRFTISKTSTTVDLKITSPTTEDTATYFCARDLDLWGPGTLVTVSS VL: AAVLTQTPSPVSAAVGGTVSISCQSSESVYSNYLAWFQQKPGQPPKFLIYEASKLASGVPSRFKGSGSGTQFTLTISDVQCDDAGTYYCAGGYSSEGVAFGGGTEVVVKR
Reply: 2.2e-05
